Ref: the supplement of paper PMC10307832

System: NCI-H2023
ASSAY METHOD TEXT: relative viability (nuclei count vs DMSO), 5 days (fraction); higher = more cells survive
SETUP CONDITIONS: first compound 0.002 µM

COMPOUND: CC(=O)O[C@@]12CO[C@@H]1C[C@H](O)[C@@]1(C)C(=O)[C@H](O)C3=C(C)[C@@H](OC(=O)[C@H](O)[C@@H](NC(=O)OC(C)(C)C)c4ccccc4)C[C@@](O)([C@@H](OC(=O)c4ccccc4)[C@H]21)C3(C)C [Docetaxel] + C[C@@H](Oc1cc(-c2cnn(C3CCNCC3)c2)cnc1N)c1c(Cl)ccc(F)c1Cl [Crizotinib] (partner 1 µM)
relative viability: 0.123
